Listed here are molecules together with their documented EC50.
# Tgt: sGC enzyme (Homo sapiens, UniProt Q02108+Q02153)
# Construct: host or cells: HEK293 cells expressing GloSensor 40F cGMP
# Sequence (Q02153 whole entry): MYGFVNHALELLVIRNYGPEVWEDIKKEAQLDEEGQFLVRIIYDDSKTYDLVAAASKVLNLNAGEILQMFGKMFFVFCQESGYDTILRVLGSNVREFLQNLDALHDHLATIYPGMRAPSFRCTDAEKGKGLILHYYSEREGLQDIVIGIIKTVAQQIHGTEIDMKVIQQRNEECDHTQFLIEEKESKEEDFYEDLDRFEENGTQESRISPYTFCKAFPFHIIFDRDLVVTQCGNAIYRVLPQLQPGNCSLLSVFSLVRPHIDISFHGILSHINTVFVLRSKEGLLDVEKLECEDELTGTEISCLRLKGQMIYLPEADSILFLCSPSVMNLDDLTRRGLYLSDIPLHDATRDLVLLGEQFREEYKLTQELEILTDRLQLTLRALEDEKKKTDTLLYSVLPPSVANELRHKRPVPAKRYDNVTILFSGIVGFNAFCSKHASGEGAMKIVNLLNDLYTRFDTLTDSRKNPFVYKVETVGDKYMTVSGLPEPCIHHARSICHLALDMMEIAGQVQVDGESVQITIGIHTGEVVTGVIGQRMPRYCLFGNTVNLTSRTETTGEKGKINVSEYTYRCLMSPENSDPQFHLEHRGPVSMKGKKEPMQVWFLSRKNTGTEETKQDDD
# Sequence (Q02108 whole entry): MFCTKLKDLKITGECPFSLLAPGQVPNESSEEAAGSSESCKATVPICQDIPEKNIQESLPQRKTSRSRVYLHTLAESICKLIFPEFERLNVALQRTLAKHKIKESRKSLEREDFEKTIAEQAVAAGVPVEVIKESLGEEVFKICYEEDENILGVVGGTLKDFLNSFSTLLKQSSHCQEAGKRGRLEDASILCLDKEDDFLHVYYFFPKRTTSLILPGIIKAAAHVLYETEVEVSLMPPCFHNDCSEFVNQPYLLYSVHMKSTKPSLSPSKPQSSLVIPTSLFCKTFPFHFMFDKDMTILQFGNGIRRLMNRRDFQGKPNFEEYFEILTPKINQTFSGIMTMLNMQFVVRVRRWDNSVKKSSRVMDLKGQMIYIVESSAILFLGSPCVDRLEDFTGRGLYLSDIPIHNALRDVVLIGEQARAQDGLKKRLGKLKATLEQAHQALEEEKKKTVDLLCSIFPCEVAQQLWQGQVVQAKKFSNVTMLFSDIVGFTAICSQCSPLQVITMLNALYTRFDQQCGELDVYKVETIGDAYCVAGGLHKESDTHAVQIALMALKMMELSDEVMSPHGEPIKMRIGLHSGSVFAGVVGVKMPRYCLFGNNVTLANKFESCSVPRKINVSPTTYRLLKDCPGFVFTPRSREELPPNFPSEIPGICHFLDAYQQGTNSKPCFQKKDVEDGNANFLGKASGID
# Assay Method Text: cGMP GloSensor cell-based assay, 384-well format
# Test Parameters: read-out: sGC_HEK_GloSensor EC50/IC50 Abs (Norm) (nM) Binned (~)
# Protocol: Human embryonic kidney cells (HEK293) cells expressing GloSensor™ 40F cGMP (Part No: CS182801, Promega) were used to evaluate the activity of test compounds. The luminescent biosensors (engineered luciferase) that were incorporated into these cells detect cGMP formed by the compounds stimulating the sGC enzyme and emit luminescence. […] For the kinetics studies, luminescense was measured right away for 0.2 sec per well with Envision (Perkin Elmer model No). […]

molecule=Nc1ccnc(-c2cc(-c3ccon3)n(Cc3ncccc3F)n2)n1 tgt="sGC enzyme (Homo sapiens, UniProt Q02108+Q02153)" property=EC50 result="> 1000 nM"

Request: Which EC50 value belongs to O[C@@H]1CN(c2nc(-c3cc(-c4ccon4)n(Cc4ccccc4F)n3)ncc2F)C[C@H]1O (racemic) ?
Response: < 100 nM

Request: Which EC50 value belongs to CN(CC(O)c1ccc(O)c(O)c1)c1nc(-c2cc(-c3ccon3)n(Cc3ccccc3F)n2)ncc1F (stereo not shown) ?
Response: < 100 nM

Request: Which EC50 value belongs to OC(CNc1nc(-c2cc(-c3ncco3)n(Cc3ccccc3F)n2)ncc1F)(C(F)(F)F)C(F)(F)F ?
Response: 100 to 1000 nM

Request: Which EC50 value belongs to Fc1cnc(-c2cc(-c3ccon3)n(Cc3cccc(F)c3F)n2)nc1 ?
Response: > 1000 nM

Request: Which EC50 value belongs to CC(=O)c1cc(-c2ncc(F)c(NCC(F)(F)F)n2)nn1Cc1ccccc1F ?
Response: 100 to 1000 nM

Request: Which EC50 value belongs to Fc1cnc(-c2cc(-c3ccon3)n(Cc3ncccc3F)n2)nc1 ?
Response: > 1000 nM

Request: Which EC50 value belongs to CCOC(=O)C(C)(C)c1nc(-c2cc(-c3ccon3)n(Cc3ccccc3F)n2)nnc1O ?
Response: > 1000 nM

Request: Which EC50 value belongs to Oc1nc(-c2cc(-c3ccon3)n(Cc3cccnc3)n2)ncc1F ?
Response: > 1000 nM

Request: Which EC50 value belongs to COC(=O)CCCNc1nc(-c2cc(-c3ccon3)n(Cc3ccccc3F)n2)ncc1F ?
Response: < 100 nM

====

# Tgt: soluble guanylate cyclase (sGC) (Homo sapiens, UniProt Q02108+Q02153)
# Construct: endogenously expressing soluble guanylate cyclase (sGC); endogenous in cells; host or cells: HEK293
# Sequence (Q02153 whole entry): as the sequence (Q02153 whole entry) above
# Sequence (Q02108 whole entry): as the sequence (Q02108 whole entry) above
# Assay Method Text: sGC-HEK-cGMP assay with LC/MS detection
# Type: cell-based
# Test Parameters: HEK293 whole cells, LC/MS detection of cGMP, 10 μM DETA-NONOate; 50% of high control response (30 μM Compound Y); read-out: Absolute EC50 (nM)- binned (~)
Listed here are compounds together with their documented EC50.

See these solved cases before continuing.
compound="CC(O)(C(N)=O)C(=O)Nc1ccnc(-c2cc(-c3ccon3)n(Cc3ccccc3F)n2)n1 (stereo not drawn)" property=EC50 result="100 to 1000 nM"
compound=O=C(NNC(=O)C(F)(F)F)Nc1nc(-c2cc(-c3ccon3)n(Cc3ccccc3F)n2)ncc1F property=EC50 result="> 1000 nM"

Request: Which EC50 value belongs to CC(=O)c1cc(-c2ncc(F)c(N(C)CC3(C(N)=O)CC3)n2)nn1Cc1ccccc1F ?
Response: 100 to 1000 nM

Request: Which EC50 value belongs to C[C@@](N)(CNc1nc(-c2cc(-c3ccon3)n(Cc3ccccc3F)n2)ncc1F)C(F)(F)F ?
Response: < 100 nM

Request: Which EC50 value belongs to CC(=O)c1cc(-c2ncc(F)c(N3CCC(O)C(CO)C3)n2)nn1Cc1ccccc1F (stereo not drawn) ?
Response: 100 to 1000 nM

Request: Which EC50 value belongs to Oc1ccc(Cn2nc(-c3ncc(F)c(NCC(O)(C(F)(F)F)C(F)(F)F)n3)cc2-c2ccon2)c(F)c1 ?
Response: > 1000 nM

Request: Which EC50 value belongs to O=C(O)Cc1cn(-c2nc(-c3cc(-c4ccon4)n(Cc4ccccc4F)n3)ncc2F)[nH]c1=O ?
Response: 100 to 1000 nM

Request: Which EC50 value belongs to CC(=O)c1cc(-c2ncc(F)c(N3CCC(C(=O)O)(C(C)C)CC3)n2)nn1Cc1ccccc1F ?
Response: 100 to 1000 nM

Request: Which EC50 value belongs to OC(CNc1nc(-n2cc(-c3ccon3)c(Cc3ccccc3F)n2)ncc1F)(C(F)(F)F)C(F)(F)F ?
Response: 100 to 1000 nM

Request: Which EC50 value belongs to CC(=O)c1cc(-c2ncc(F)c(NS(=O)(=O)CCC(F)(F)F)n2)nn1Cc1ccccc1F ?
Response: 100 to 1000 nM

Request: Which EC50 value belongs to CCCC(C)(N)CNc1nc(-c2cc(-c3ccon3)n(Cc3ccccc3F)n2)ncc1F (stereo not drawn) ?
Response: 100 to 1000 nM

Request: Which EC50 value belongs to Fc1ccccc1Cn1nc(-c2ncc(N3CCOCC3)cn2)cc1-c1ccon1 ?
Response: > 30000 nM

Request: Which EC50 value belongs to O=C(Nc1ccnc(-c2cc(-c3ccon3)n(Cc3ccccc3F)n2)n1)c1cc(O)no1 ?
Response: > 1000 nM

Request: Which EC50 value belongs to CC(=O)c1cc(-c2ncc(F)c(N3CCCC3)n2)nn1Cc1ccccc1F ?
Response: > 1000 nM

Request: Which EC50 value belongs to CC(C)(C(=O)O)C(=O)Nc1ccnc(-c2cc(-c3ccon3)n(Cc3ccccc3F)n2)n1 ?
Response: > 1000 nM

Request: Which EC50 value belongs to NC(=O)[C@](O)(CNc1nc(-c2cc(-c3ccon3)n(Cc3ccc(O)cc3F)n2)ncc1F)C(F)(F)F ?
Response: > 1000 nM

Request: Which EC50 value belongs to Cn1ccnc1C(O)(CNc1nc(-c2cc(-c3ccon3)n(Cc3ccccc3F)n2)ncc1F)C(F)(F)F (stereo not drawn) ?
Response: 100 to 1000 nM

Request: Which EC50 value belongs to CCOC(=O)C(C)(C)C(=O)Nc1ccnc(-c2cc(-c3ccon3)n(Cc3ccccc3F)n2)n1 ?
Response: > 1000 nM

Request: Which EC50 value belongs to CC(=O)c1cc(-c2ncc(F)c(N3CCC(C(=O)O)(c4ccccc4)CC3)n2)nn1Cc1ccccc1F ?
Response: 100 to 1000 nM

Request: Which EC50 value belongs to CC(=O)c1cc(-c2ncc(F)c(NC[C@@H](C(=O)O)C(C)C)n2)nn1Cc1ccccc1F ?
Response: 100 to 1000 nM

Request: Which EC50 value belongs to Nc1nc(-c2cc(-c3ccon3)n(Cc3ccccc3F)n2)ncc1NCCO ?
Response: > 1000 nM

====

Listed here are compounds together with their documented EC50.
# Tgt: soluble guanylate cyclase (sGC) (Homo sapiens, UniProt Q02108+Q02153)
# Construct: endogenously expressing soluble guanylate cyclase (sGC); endogenous in cells; host or cells: HEK293
# Assay Method Text: sGC-HEK-cGMP assay with LC/MS detection
# Format: cell-based
# Test Parameters: HEK293 whole cells, LC/MS detection of cGMP, 10 μM DETA-NONOate; 50% of high control response (30 μM Compound Y); read-out: Absolute EC50 (nM)- binned (~)

compound="OC(CNc1nc(-c2cc(-c3ncco3)n(Cc3ccccc3F)n2)ncc1F)(C(F)(F)F)C(F)(F)F [Compound 103]" result="100 to 1000 nM"

Request: Which EC50 value belongs to Fc1cnc(-c2cc(-c3ccon3)n(Cc3ccccc3F)n2)nc1 [Compound 109] ?
Response: 100 to 1000 nM

Request: Which EC50 value belongs to COCc1cc(-c2ncc(F)c(NCC(O)(C(N)=O)C(F)(F)F)n2)nn1Cc1ccccc1F (stereo not shown) [Compound 20] ?
Response: > 30000 nM

Request: Which EC50 value belongs to Cc1nnc(C(O)(CNc2nc(-c3cc(-c4ccon4)n(Cc4ccccc4F)n3)ncc2F)C(F)(F)F)o1 (stereo not shown) [Compound 52] ?
Response: < 100 nM

====

# Tgt: soluble guanylate cyclase (sGC) (Homo sapiens, UniProt Q02108+Q02153)
# Construct: endogenously expressing soluble guanylate cyclase (sGC); endogenous in cells; host or cells: HEK293
# Assay Method Text: sGC-HEK-cGMP assay with LC/MS detection
# Format: cell-based
# Test Parameters: HEK293 whole cells, LC/MS detection of cGMP, 10 μM DETA-NONOate; 50% of high control response (30 μM Compound Y); read-out: Absolute EC50 (nM)- binned (~)
Property: EC50

See these solved cases before continuing.
molecule="O=C(OCCNc1nc(-c2cc(-c3ccon3)n(Cc3ccccc3F)n2)ncc1F)c1ccccn1 [Compound 206]" result="< 100 nM"
molecule="CC(=O)c1cc(-c2ncc(F)c(N3CCCC(F)(F)C3)n2)nn1Cc1ccccc1F [Compound 79]" result="100 to 1000 nM"
molecule="CC(=O)c1cc(-c2ncc(F)c(N3CCC(S(N)(=O)=O)CC3)n2)nn1Cc1ccccc1F [Compound 88]" result="100 to 1000 nM"
molecule="COCc1cc(-c2ncc(F)c(O)n2)nn1Cc1ccccc1F [Compound 105]" result="> 30000 nM"
molecule="CC1(C#N)C(=O)Nc2nc(-c3cc(-c4ccon4)n(Cc4ccccc4F)n3)nc(N)c21 (centres unmarked) [Compound 29]" result="< 100 nM"

Request: Which EC50 value belongs to C=CCN(C)c1nc(-c2cc(-c3ccon3)n(Cc3ccccc3F)n2)ncc1F [Compound 166] ?
Response: > 1000 nM

Request: Which EC50 value belongs to Oc1cccc(F)c1Cn1nc(-c2ncc(F)c(O)n2)cc1-c1ccon1 [Compound 182] ?
Response: > 1000 nM

Request: Which EC50 value belongs to CS(=O)(=O)c1cc(-c2ncc(F)c(O)n2)nn1Cc1ccccc1F [Compound 196] ?
Response: > 30000 nM
